TEST NAME: Metabolic stability in human liver microsomes assessed as half life in presence of UDPGA by glucuronidation assay
Format: ADME, Microsome
MEASURED ENDPOINT: half-life

1) O=C1N[C@@](c2ccc(OCCCC(F)(F)F)cc2F)(C(F)(F)F)CC(c2ncc(C3CC3)s2)=C1n1nn[nH]c1=O: > 2 h
2) Cc1ccc(C2=C(n3cnnn3)C(=O)N[C@@](c3ccc(OCCCC(F)(F)F)cc3)(C(F)(F)F)C2)cc1: > 2 h
3) CCc1ccc(C2=C(n3nn[nH]c3=O)C(=O)N[C@@](c3ccc(OCCCC(F)(F)F)cc3F)(C(F)(F)F)C2)s1: > 2 h

Just so you know, measured half-life for Cc1ccc(C2=C(n3ccnc3)C(=O)N[C@@](c3ccc(OCCCC(F)(F)F)cc3)(C(F)(F)F)C2)cc1 came out at > 2 h

Just so you know, measured half-life for O=C1N[C@@](c2ccc(OCCCC(F)(F)F)cc2F)(C(F)(F)F)CC(c2ccc(C3CC3)s2)=C1c1nnn[nH]1 came out at 1.83 h
